System: Crude diglycosidase
Experiment Notes: Examination of pH in the conversion into isoflavone aglycons by diglycosidase using soybean materials
Assay type: biochemical, Penicillium multicolor IAM7153
Test Parameters: pH2.7; heat treatment of enzyme: no; reaction time 1 h
# Decomposition efficiency of glycitin family in concentrated soybean protein per record follows
Please reply with the bare figure in % and do not write the unit itself.

// known answers, use as guide
# Line Notation, Reported Value
measured = [
    ("COc1cc2c(=O)c(-c3ccc(O)cc3)coc2cc1O[C@@H]1O[C@H](CO)[C@@H](O)[C@H](O)[C@H]1O", 38.0),
    ("COc1cc2c(=O)c(-c3ccc(O)cc3)coc2cc1O[C@@H]1O[C@H](COC(=O)CC(=O)O)[C@@H](O)[C@H](O)[C@H]1O", 0.5),
    ("COc1cc2c(=O)c(-c3ccc(O)cc3)coc2cc1O", 25.0),
]

### Prompt Give me measured Decomposition efficiency of glycitin family in concentrated soybean protein, please, for this compound: "COc1cc2c(=O)c(-c3ccc(O)cc3)coc2cc1O[C@@H]1O[C@H](COC(C)=O)[C@@H](O)[C@H](O)[C@H]1O"
### Response 36.6
